# Method: Inhibition of rabbit plasma kallikrein using fluorogenic H-Pro-Phe-Arg-AMC peptide as substrate preincubated for 15 mins followed by substrate addition measured by fluorescence-based assay
# Set-up: species or system Oryctolagus cuniculus
# Test Settings: read-out: Ki(app)
Quantity Kind: pKi
One number for each entry, as −log10 of the molar value.

# get_value(readout='pKi', item= CC(=O)N[C@H]1CSCc2cc3cc(c2)CSC[C@H](NC(=O)[C@H](CCCCNC(=N)N)NC(=O)[C@H](Cc2ccc(O)cc2)NC(=O)[C@@H]2CCN2C(=O)[C@H](Cc2ccccc2)NC(=O)[C@H](CO)NC1=O)C(=O)N[C@@H](C)CN[C@@H](Cc1cnc[nH]1)C(=O)N[C@@H](CCC(N)=O)C(=O)N[C@@H](CC(=O)O)C(=O)N[C@@H](CC(C)C)C(=O)N[C@H](C(=O)O)CSC3 )
5.47

----------
# Method: Plasma clearance in Sprague-Dawley rat at 5 mg/kg, iv measured up to 240 mins post dose by LC-MS/MS analysis
# Type: ADME, organism-based
Quantity Kind: clearance (mL/min/kg)
Numbers only, in mL/min/kg.

Entry CC(=O)N[C@H]1CSCc2cc3cc(c2)CSC[C@H](NC(=O)[C@H](CCCCNC(=N)N)NC(=O)[C@H](Cc2ccc(O)cc2)NC(=O)[C@@H]2CCN2C(=O)[C@H](Cc2ccccc2)NC(=O)[C@H](CO)NC1=O)C(=O)N[C@@H](C)CN[C@@H](Cc1cnc[nH]1)C(=O)N[C@@H](CCC(N)=O)C(=O)N[C@@H](CC(=O)O)C(=O)N[C@@H](CC(C)C)C(=O)N[C@H](C(=O)O)CSC3 has what clearance?
6.2

----------
# Method: Drug level in New Zealand white rabbit ipsialateral eye vitreous humor at 2 mg/ml, administered via ivt injection at late time point measured up to 100 hrs by LC-MS/MS analysis
# Type: ADME, tissue-based, Oryctolagus cuniculus
# Test Settings: ipsilateral eye vitreous humor, topical or ocular, read-out: Drug uptake
Quantity Kind: concentration at 100 h (µM)
One number for each entry, in µM.

Endpoint output: concentration at 100 h of CC(=O)N[C@H]1CSCc2cc3cc(c2)CSC[C@H](NC(=O)[C@H](CCCCNC(=N)N)NC(=O)[C@H](Cc2ccc(O)cc2)NC(=O)[C@@H]2CCN2C(=O)[C@H](Cc2ccccc2)NC(=O)[C@H](CO)NC1=O)C(=O)N[C@@H](C)CN[C@@H](Cc1cnc[nH]1)C(=O)N[C@@H](CCC(N)=O)C(=O)N[C@@H](CC(=O)O)C(=O)N[C@@H](CC(C)C)C(=O)N[C@H](C(=O)O)CSC3 . Value?
8
